- assay-explanation: Pharmacokinetics of Compound 1 in combination with MK-3475 in subjects with various cancers
- Format: in vivo, human
- setup-conditions: human, plasma, oral, 100 mg, Cohort 3, 100 mg, first dose, mean ± SD; read-out: AUC0-t
readout-kind: AUC(0-t) (µM·h)
Report as a plain number; the unit µM·h is understood.

For record NS(=O)(=O)NCCNc1nonc1C(=NO)Nc1ccc(F)c(Br)c1 the listed AUC(0-t) is 2.09

* * *

- assay-explanation: Pharmacokinetics of Compound 1 in combination with MK-3475 in subjects with various cancers
- Format: in vivo, human
- setup-conditions: human, plasma, oral, 100 mg BID, All diagnoses, steady state C1D8, mean ± SD
readout-kind: Cmax (nM)
Report as a plain number; the unit nM is understood.

For record NS(=O)(=O)NCCNc1nonc1C(=NO)Nc1ccc(F)c(Br)c1 the listed Cmax is 1100

* * *

- assay-explanation: Dose-escalation study of Compound 1 pharmacokinetics in subjects with advanced malignancies (tablets of Formulations 1 and/or 3, fasted; food effect cohort)
- Type: in vivo, human
- setup-conditions: human, plasma, oral, 400 mg, 400 mg BID, steady state, geometric mean; read-out: t1/2 (converted)
- Excerpt: Thus, Cmax, Cmin and Tmax were taken directly from the observed plasma concentration data or imputed in some cases. The terminal-phase disposition rate constant (λz) was estimated using a log-linear regression of the concentration data in the terminal disposition phase, and t1/2 was estimated as ln(2)/λz. AUC0-t and AUC0-τ was estimated using the linear trapezoidal rule for increasing concentrations and the log-trapezoidal rule for decreasing concentrations. […]
readout-kind: half-life (min)
Report as a plain number; the unit min is understood.

For record NS(=O)(=O)NCCNc1nonc1C(=NO)Nc1ccc(F)c(Br)c1 the listed half-life is 156

* * *

- assay-explanation: Pharmacokinetics of Compound 1 in combination with MK-3475 in subjects with various cancers
- Type: in vivo, human
- setup-conditions: human, plasma, oral, 100 mg BID, Diagnosis TNBC, steady state C1D8, mean ± SD; read-out: AUC0-12 h (converted)
readout-kind: AUC(0-t) (µM·h)
Report as a plain number; the unit µM·h is understood.

For record NS(=O)(=O)NCCNc1nonc1C(=NO)Nc1ccc(F)c(Br)c1 [Compound 1] the listed AUC(0-t) is 5.01

* * *

- assay-explanation: Dose-escalation study of Compound 1 pharmacokinetics in subjects with advanced malignancies (tablets of Formulations 1 and/or 3, fasted; food effect cohort)
- Format: in vivo, human
- setup-conditions: 50 mg BID, steady state, mean ± SD
readout-kind: Cmax (nM)
Report as a plain number; the unit nM is understood.

For record NS(=O)(=O)NCCNc1nonc1C(=NO)Nc1ccc(F)c(Br)c1 the listed Cmax is 742

* * *

- assay-explanation: Pharmacokinetics of Compound 1 in combination with MK-3475 in subjects with various cancers
- Format: in vivo, human
- setup-conditions: human, plasma, oral, 50 mg, Cohort 2, 50 mg BID, steady state C1D8, mean ± SD
readout-kind: Cmax (nM)
Report as a plain number; the unit nM is understood.

For record NS(=O)(=O)NCCNc1nonc1C(=NO)Nc1ccc(F)c(Br)c1 the listed Cmax is 603

* * *

- assay-explanation: Pharmacokinetics of Compound 1 in combination with MK-3475 in subjects with various cancers
- Assay type: in vivo, human
- setup-conditions: human, plasma, oral, 100 mg BID, Diagnosis DLBCL, steady state C1D8, individual values of 2 subjects; read-out: tmax
- Method: The subjects were not limited to a specific cancers and study include subjects with various cancers. […] One treatment cycle consisted of 21 days. […] The RP2D was selected from the evaluated safety expansions. […] Pharmacokinetic samples were obtained at the visits of Cycle 1 Day 1, Cycle 1 Day 8 and Cycle 2 Day 1. […] The exact date and time of the PK blood draws were recorded in the eCRF along with the date and time of the last dose of study drug and details of the last meal preceding the blood draw. […]
readout-kind: tmax (h)
Report as a plain number; the unit h is understood.

For record NS(=O)(=O)NCCNc1nonc1C(=NO)Nc1ccc(F)c(Br)c1 the listed tmax is 4

* * *

- assay-explanation: Pharmacokinetics of Compound 1 in combination with MK-3475 in subjects with various cancers
- Assay type: in vivo, human
- setup-conditions: human, plasma, oral, 100 mg BID, Dose Reduction By C4D1 subjects (Table 13), steady state C1D8, mean ± SD; read-out: AUC0-12 h (converted)
readout-kind: AUC(0-t) (µM·h)
Report as a plain number; the unit µM·h is understood.

For record NS(=O)(=O)NCCNc1nonc1C(=NO)Nc1ccc(F)c(Br)c1 [Compound 1] the listed AUC(0-t) is 5.1

* * *

- assay-explanation: Pharmacokinetics of Compound 1 in combination with MK-3475 in subjects with various cancers
- Assay type: in vivo, human
- setup-conditions: human, plasma, oral, 100 mg BID, Diagnosis GU, steady state C1D8, mean ± SD
readout-kind: Cmax
Answer shape: numeric part, then the unit.

For record NS(=O)(=O)NCCNc1nonc1C(=NO)Nc1ccc(F)c(Br)c1 [Compound 1] the listed Cmax is 1100 nM

* * *

- assay-explanation: Dose-escalation study of Compound 1 pharmacokinetics in subjects with advanced malignancies (tablets of Formulations 1 and/or 3, fasted; food effect cohort)
- Format: in vivo, human
- setup-conditions: human, plasma, oral, 700 mg, 700 mg BID, steady state, geometric mean
readout-kind: Cmax (µM)
Report as a plain number; the unit µM is understood.

For record NS(=O)(=O)NCCNc1nonc1C(=NO)Nc1ccc(F)c(Br)c1 the listed Cmax is 6

* * *

- assay-explanation: Pharmacokinetics of Compound 1 in combination with MK-3475 in subjects with various cancers
- Type: in vivo, human
- setup-conditions: human, plasma, oral, 100 mg, Diagnosis DLBCL, first dose, geometric mean
readout-kind: Cmax (nM)
Report as a plain number; the unit nM is understood.

For record NS(=O)(=O)NCCNc1nonc1C(=NO)Nc1ccc(F)c(Br)c1 the listed Cmax is 664

* * *

- assay-explanation: Pharmacokinetics of Compound 1 in combination with MK-3475 in subjects with various cancers
- Assay type: in vivo, human
- setup-conditions: human, plasma, oral, 100 mg BID, Diagnosis SCCHN, steady state C1D8, geometric mean
readout-kind: Cmax

For record NS(=O)(=O)NCCNc1nonc1C(=NO)Nc1ccc(F)c(Br)c1 [Compound 1] the listed Cmax is 821 nM

* * *

- assay-explanation: Pharmacokinetics of Compound 1 in combination with MK-3475 in subjects with various cancers
- Type: in vivo, human
- setup-conditions: human, plasma, oral, 100 mg, Diagnosis TNBC, first dose, mean ± SD
readout-kind: Cmax (nM)
Report as a plain number; the unit nM is understood.

For record NS(=O)(=O)NCCNc1nonc1C(=NO)Nc1ccc(F)c(Br)c1 the listed Cmax is 1030

* * *

- assay-explanation: Pharmacokinetics of Compound 1 in combination with MK-3475 in subjects with various cancers
- Assay type: in vivo, human
- setup-conditions: human, plasma, oral, 100 mg, Cohort 3, 100 mg BID, steady state C1D8, mean ± SD; read-out: AUC0-12 h (converted)
readout-kind: AUC(0-t)
Answer shape: numeric part, then the unit.

For record NS(=O)(=O)NCCNc1nonc1C(=NO)Nc1ccc(F)c(Br)c1 the listed AUC(0-t) is 3.91 µM·h

* * *

- assay-explanation: Pharmacokinetics of Compound 1 in combination with MK-3475 in subjects with various cancers
- Format: in vivo, human
- setup-conditions: human, plasma, oral, 50 mg, Cohort 4 (MEL), first dose, mean ± SD
- Protocol: The subjects were not limited to a specific cancers and study include subjects with various cancers. […] One treatment cycle consisted of 21 days. […] The RP2D was selected from the evaluated safety expansions. […] Pharmacokinetic samples were obtained at the visits of Cycle 1 Day 1, Cycle 1 Day 8 and Cycle 2 Day 1. […] The exact date and time of the PK blood draws were recorded in the eCRF along with the date and time of the last dose of study drug and details of the last meal preceding the blood draw. […]
readout-kind: Cmax (nM)
Report as a plain number; the unit nM is understood.

For record NS(=O)(=O)NCCNc1nonc1C(=NO)Nc1ccc(F)c(Br)c1 the listed Cmax is 512

* * *

- assay-explanation: Dose-escalation study of Compound 1 pharmacokinetics in subjects with advanced malignancies (tablets of Formulations 1 and/or 3, fasted; food effect cohort)
- Type: in vivo, human
- setup-conditions: human, plasma, oral, 600 mg, 600 mg BID, steady state; read-out: prolongation of Tmax by a high-fat meal
- From the text: Thus, Cmax, Cmin and Tmax were taken directly from the observed plasma concentration data or imputed in some cases. The terminal-phase disposition rate constant (λz) was estimated using a log-linear regression of the concentration data in the terminal disposition phase, and t1/2 was estimated as ln(2)/λz. AUC0-t and AUC0-τ was estimated using the linear trapezoidal rule for increasing concentrations and the log-trapezoidal rule for decreasing concentrations. […]
readout-kind: tmax (h)
Report as a plain number; the unit h is understood.

For record NS(=O)(=O)NCCNc1nonc1C(=NO)Nc1ccc(F)c(Br)c1 the listed tmax is 4
